Test system: U-251
assay.remarks: NCI tumour cell line growth inhibition, 48 h
Active and inactive are the calls of the source. Cut-off read from the data, not from the text of the source: active = GI50 up to about 1.1 µM and inactive = higher.
Labels: YES (active), NO (inactive)

[[record]]
compound = "OC(c1ccc(F)cc1)C(F)(F)c1nc2ccccc2o1 (stereo unspecified)"
group_label = "NO"

[[record]]
compound = "COc1ncc(/C=C2\\OC(=O)c3ccccc32)c(OC)n1"
group_label = "NO"

[[record]]
compound = "NC1c2c(Br)sc(N3CCCC3)c2C(=O)C1O (stereo unspecified)"
group_label = "NO"

[[record]]
compound = "COc1cccc(C2SC(=N)Nc3c2c(C)nn3C(=O)c2ccccc2O)c1 (stereo unspecified)"
group_label = "NO"

[[record]]
compound = "Cc1ccccc1/C=C/c1csnn1"
group_label = "NO"

[[record]]
compound = "CN(C)Cc1cc(C(C)(C)C)cc(C2CCCCC2)c1O"
group_label = "NO"

[[record]]
compound = "CCOc1cc2c(cc1O)C=C[C@@H]1[C@@H]2CC[C@]2(C)[C@@H](O)CC[C@@H]12"
group_label = "NO"

[[record]]
compound = "COC(=O)/C(C=O)=C/Sc1ccccc1"
group_label = "NO"

[[record]]
compound = "CCCCCCCCCCC/C=C(/C(=O)CCCO[Si](C)(C)C(C)(C)C)C(=O)OC"
group_label = "NO"

[[record]]
compound = "O=C(CCc1nnc2s/c(=C\\c3ccccc3Cl)c(=O)n12)Nc1cc(Cl)ccc1Cl"
group_label = "NO"

[[record]]
compound = "Nc1nc(Cl)cc(NC2(CO)CCC2)n1"
group_label = "NO"

[[record]]
compound = "NC1CC(Cl)c2c(Cl)sc(Cl)c21 (stereo unspecified)"
group_label = "NO"

[[record]]
compound = "Cc1cc(NS(=O)(=O)c2ccc(Nc3c4ccccc4nc4ccc(C(=O)Nc5ccc(S(N)(=O)=O)cc5)cc34)cc2)no1"
group_label = "NO"

[[record]]
compound = "COC(=O)C[C@H](COCc1ccccc1)NC(=O)C[C@H](COCc1ccccc1)NC(=O)C[C@H](COCc1ccccc1)NC(=O)OC(C)(C)C"
group_label = "NO"

[[record]]
compound = "N=C(N)NCC1CCCCCCN1 (stereo unspecified)"
group_label = "NO"

[[record]]
compound = "C=CCn1c2c(sc1=S)C(S)NC=N2 (stereo unspecified)"
group_label = "NO"

[[record]]
compound = "N#CCC(=O)N/N=C(\\C(=O)Nc1ccc(Cl)c(Cl)c1)C1CN(c2ccccc2)N=C1N (stereo unspecified)"
group_label = "NO"

[[record]]
compound = "CC12CC/C(=N/NC(N)=O)C3C1CCCC32"
group_label = "NO"

[[record]]
compound = "COc1ccc(/C=C2\\Sc3nnc(CNc4ccc(Cl)cc4)n3N=C2c2cc(F)c(Cl)cc2Cl)cc1OC"
group_label = "NO"

[[record]]
compound = "CCOC(=O)CCC(NC(=O)C(N)c1ccc([N+](=O)[O-])cc1)C(=O)NC(CCC(=O)OCC)C(=O)OCC (stereo unspecified)"
group_label = "NO"

[[record]]
compound = "Cc1cn(CC(=S)NCCc2c[nH]c3ccccc23)c(=O)[nH]c1=O"
group_label = "NO"

[[record]]
compound = "COc1ccc(/C(Cl)=C(\\C=O)c2ccc(Cl)cc2)cc1"
group_label = "NO"

[[record]]
compound = "CN(C)CCNc1ccc([N+](=O)[O-])c2sc3ccccc3c(=O)c12"
group_label = "NO"

[[record]]
compound = "Cc1ccc(NCC2(/N=C/c3ccccc3)OC(CO)C(O)C2O)cc1 (stereo unspecified)"
group_label = "NO"

[[record]]
compound = "O=c1cc(-c2ccc(Cl)cc2)oc2cc(OCCCOc3ccc4c(=O)cc(-c5ccc(Cl)cc5)oc4c3)ccc12"
group_label = "NO"

[[record]]
compound = "CC(C)CCC[C@@H](C)C1CCC2[C@@H]3CC=C4C[C@@H](C(=O)NCC[N+](C)(C)CCCS(=O)(=O)[O-])CC[C@]4(C)C3CC[C@@]21C (stereo partly specified)"
group_label = "NO"

[[record]]
compound = "CC(/C=C/c1ccc([N+](=O)[O-])o1)=N/N1CC(CN2CCOCC2)OC1=O (stereo unspecified)"
group_label = "NO"

[[record]]
compound = "C/C(=C/CC[C@]1(CO)CC[C@]2(CO)[C@H](CC[C@@H]3[C@@]4(C)CC[C@H](OC5OCC(O)C(O)C5OC5OC(CO)C(O)C(O)C5O)C(C)(C)[C@@H]4CC[C@]32C)[C@H]1O)CO (stereo partly specified)"
group_label = "NO"

[[record]]
compound = "O=[N+]([O-])c1ccc(/N=N/c2c(O)ccc3cc(S(=O)(=O)O)ccc23)cc1"
group_label = "NO"

[[record]]
compound = "CCN(CC)CCOC(NC(C)=O)(c1ccccc1)c1ccccc1"
group_label = "NO"

[[record]]
compound = "CN1CCc2cc(O)c3cc2C1Cc1ccc(cc1)Oc1cc(ccc1O)CC1c2c(cc4c(c2O3)OCO4)CCN1C (stereo unspecified)"
group_label = "NO"

[[record]]
compound = "CN(C)C(=O)N(CCCl)N=O"
group_label = "NO"

[[record]]
compound = "COc1ccc2c(c1)CCc1c(CO)c(COC(=O)NC(C)C)n(C)c1-2"
group_label = "NO"

[[record]]
compound = "CC[C@@]1(O)C(=O)OCc2c1cc1n(c2=O)Cc2c-1nc1ccccc1c2/C=N\\NC(=O)C(N)CC(C)C (stereo partly specified)"
group_label = "YES"

[[record]]
compound = "COC(=O)c1cc(CC(C)C)c2c(c1)[nH]c1ccccc12"
group_label = "NO"

[[record]]
compound = "COc1ccc2c(c1)CN1C(=N2)CSC1c1cccc(Br)c1 (stereo unspecified)"
group_label = "NO"

[[record]]
compound = "Clc1ccc2cccc3c2c1C1OC3c2ccccc21 (stereo unspecified)"
group_label = "NO"

[[record]]
compound = "COC(=O)/C(C#N)=C1\\CCC(OC)N1C (stereo unspecified)"
group_label = "NO"

[[record]]
compound = "CC1OC(=O)C2CC3CCCCC3C(/C=C/C3CCCC(C)N3C)C12 (stereo unspecified)"
group_label = "NO"

[[record]]
compound = "Cc1ccc(C2C(Cl)C(=O)N2NC(=O)c2ccc(N)cc2)cc1 (stereo unspecified)"
group_label = "NO"

[[record]]
compound = "NC1CC(=O)c2c(Cl)sc(Cl)c21 (stereo unspecified)"
group_label = "NO"

